Protocol text: qHTS assay for small molecule agonists of the p53 signaling pathway (AID 651631); further: nearly all actives have a fitted effect of over 15% in size
Assay setup: HCT-116 p53RE-bla reporter, beta-lactamase FRET ratio, 16 h; series mostly up to 73.3 µM
Records with an inconclusive call do not appear. The source made the active and inactive calls. The call rests on the fitted dose curve.
Please answer using one outcome listed in active, inactive

Worked examples, 4 molecules total:
COc1cccc(Br)c1    inactive
CCC(=O)c1cccc(Cl)c1    inactive
CCCCCCCCC=O    inactive
CC(O)CN(CCCN(C)C)CCCN(C)C (configuration not stated)    inactive

Query: Which outcome was assigned to CC(=O)NC(Cc1ccccc1)C(=O)O (configuration not stated) in this test?
Result: inactive

Query: Which outcome was assigned to C[C@H]1O[C@@H](n2cc(F)c(=O)[nH]c2=O)[C@H](O)[C@@H]1O in this test?
Result: active

Query: Which outcome was assigned to CCCCCN(CCCCC)C(=O)C(CCC(=O)O)NC(=O)c1ccc(Cl)c(Cl)c1 (configuration not stated) in this test?
Result: inactive

###

Protocol text: qHTS assay to identify small molecule antagonists of the glucocorticoid receptor (GR) signaling pathway - cell viability counter screen (AID 720693); further: on the % scale 0 is the no-effect control and ±100 the full control effect; nearly all actives have a fitted effect of over 55% in size
Assay setup: GR-bla HeLa viability, CellTiter-Glo luminescence, 18 h, with 5 nM dexamethasone present; series mostly up to 58.5 µM
Description: National Center for Advancing Translational Sciences [NCATS] NIH Chemical Genomics Center [NCGC] U.S. Environmental Protection Agency [EPA] National Institutes of Environmental Health Sciences [NIEHS] National Toxicology Program [NTP] U.S. Food and Drug Administration [FDA] The Glucocorticoid receptor (GR) is one of the members of the nuclear receptor family of ligand-dependent transcription factors. […] The activation of the reporter gene under culture conditions can be detected by fluorescence intensity. […]
Results filed as inconclusive are left out. Activity calls are given as the source filed them. Calls follow the shape of the dose curve; as a rule, active = well fitted cell-killing curve with a large enough effect in the repeat runs; inconclusive = weak or mixed curves, or effect the other way; inactive = no such curve, though single readings can be large or run the other way.
Measured parameter: viability change, negative = cytotoxic

Worked set:
C(=C(c1ccccc1)c1ccccc1)c1ccccc1    inactive
Cc1nc(-c2ccc(OCC(C)C)c(C#N)c2)sc1C(=O)O    inactive
CCO[Si](C)(OCC)OCC    inactive
C=C(C)[C@@H]1CCC2=CC(=O)C[C@@H](C)[C@]2(C)C1    inactive
CC/C=C\CCCCO    inactive
NS(=O)(=O)c1cc2c(cc1Cl)NC(CSCc1ccccc1)=NS2(=O)=O    inactive
CC(CCO)CCCC(C)(C)O (centres undefined)    inactive
COC(=O)c1ccc(C(=O)OC)c(C(=O)OC)c1    inactive
CCCc1ccccc1O    inactive
NC(=O)c1c(Cl)cccc1Cl    inactive

Please supply viability change, negative = cytotoxic for each of the following items, keeping them in order.
1. CCCCCCC(=O)OCC
2. CSc1ccc(C=O)cc1
3. N#CCN(CC#N)CCN(CC#N)CC#N
4. Cc1c(C)n(CCN(C)C)c2ccc(C(=O)OCCN(C)C)cc12

Result:
inactive
inactive
inactive
inactive

###

Study target: Estrogen receptor (Homo sapiens) (UniProt P03372)
Sequence (P03372 whole entry, looked up): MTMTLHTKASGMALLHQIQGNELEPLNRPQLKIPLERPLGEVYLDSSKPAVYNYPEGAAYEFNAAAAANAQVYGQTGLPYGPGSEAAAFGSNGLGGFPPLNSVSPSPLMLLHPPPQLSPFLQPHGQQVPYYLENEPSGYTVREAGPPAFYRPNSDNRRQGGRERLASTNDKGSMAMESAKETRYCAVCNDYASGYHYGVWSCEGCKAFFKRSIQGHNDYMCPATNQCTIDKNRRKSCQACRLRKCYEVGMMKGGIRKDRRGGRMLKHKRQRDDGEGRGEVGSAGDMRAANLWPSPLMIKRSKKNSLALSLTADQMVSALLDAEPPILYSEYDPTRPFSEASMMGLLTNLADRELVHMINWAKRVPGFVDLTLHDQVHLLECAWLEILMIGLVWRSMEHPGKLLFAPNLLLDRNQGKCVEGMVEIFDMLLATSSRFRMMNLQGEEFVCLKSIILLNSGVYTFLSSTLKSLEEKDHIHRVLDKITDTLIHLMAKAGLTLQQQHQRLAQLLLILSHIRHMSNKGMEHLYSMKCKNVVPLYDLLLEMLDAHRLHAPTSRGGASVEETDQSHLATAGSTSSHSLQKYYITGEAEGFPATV
Protocol text: qHTS assay to identify small molecule agonists of the estrogen receptor alpha (ER-alpha) signaling pathway in the presence of an antagonist (AID 1259383); further: top concentration of the series differs between compounds; on the % scale 0 is the no-effect control and ±100 the full control effect; nearly all actives have a fitted effect of over 15% in size
Assay setup: VM7Luc4E2 cells, ERE-luciferase, +ICI-182,780, 22 h; series mostly up to 92.4 µM
The source made the active and inactive calls. The call rests on the fitted dose curve.
Measured parameter: activation

Worked set:
O=C(CCOCCOCCOCCOCCC(=O)Nc1c(I)cc(I)c(C(=O)O)c1I)Nc1c(I)cc(I)c(C(=O)O)c1I    inactive
COCc1ccc(COC)cc1    inactive
CCn1cc(C(=O)O)c(=O)c2cc(F)c(N3CCN(C)CC3)cc21    1.75% [at 19 µM] (inactive)
OCCN1C[C@H](O)[C@@H](O)[C@H](O)[C@H]1CO    inactive
CC(C)[C@H](N)C(=O)OCCOCn1cnc2c(=O)[nH]c(N)nc21    inactive
CC1CCN(CCCC(=O)c2ccc(F)cc2)CC1    inactive
O=C1CC2(CCCC2)CC(=O)N1    inactive
CCCCc1ccc(N)cc1    inactive
Nc1ccn(C2CO[C@H](CO)O2)c(=O)n1 (stereo not given in full)    inactive

# input for lookup
Query: Provide the reported activation (system: Estrogen receptor (Homo sapiens) (UniProt P03372)) for NCCN1CCNC1=O
Result: inactive

###

Protocol text: qHTS assay to identify small molecule antagonists of the estrogen related receptor signaling pathway with the pleiotropic PPARgamma coactivator (PGC) from Tox21 10K library - cell viability counter screen (AID 1224840); further: on the % scale 0 is the no-effect control and ±100 the full control effect; nearly all actives have a fitted effect of over 40% in size
Assay setup: PGC/ERR reporter cells viability, CellTiter-Fluor, 17.5 h; series mostly up to 92.4 µM
Experimental: National Center for Advancing Translational Sciences [NCATS] NIH Chemical Genomics Center [NCGC] U.S. Environmental Protection Agency [EPA] National Institutes of Environmental Health Sciences [NIEHS] National Toxicology Program [NTP] […] The PGC/ERR cells were dispensed at 2,000 cells/5 ul/well in 1536-well white plates using a Multidrop dispenser. […] After 30-minute incubation at 37 C/5% CO2, the fluorescence intensity in the plates was measured using a ViewLux plate reader.
Results filed as inconclusive are left out. Active and inactive are the calls of the source. Calls follow the shape of the dose curve; as a rule, active = well fitted cell-killing curve with a large enough effect in the repeat runs (not every such curve was filed as active); inconclusive = weak or mixed curves, or effect the other way; inactive = no such curve, though single readings can be large or run the other way.
Measured parameter: viability change, negative = cytotoxic

Worked set:
OCC(CO)(CO)COCC(CO)(CO)CO    inactive
CCCCCCCCN(C)CCCCCCCC    inactive
CCCCCCCCC=O    inactive
CN1[C@@H]2CC[C@H]1CC(NC(=O)n1c(=O)[nH]c3ccccc31)C2 (stereo partly drawn)    inactive
CC(O)CN(CCCN(C)C)CCCN(C)C (stereo not drawn)    inactive

Please supply viability change, negative = cytotoxic for each of the following items, keeping them in order.
1. O=C(O)/C=C/c1ccc(Cn2ccnc2)cc1
2. CCCCCCOC(=O)c1ccccc1O
3. CCCCCCCCCCCCCCCCCC(=O)OCCCCCCCCCCCCCC(C)C
4. O=C1CC2(CCCC2)CC(=O)N1

Result:
1. inactive
2. inactive
3. inactive
4. inactive

Please supply viability change, negative = cytotoxic for each of the following items, keeping them in order.
1. Cn1ccc2cc3c(cc21)CCN3C(=O)Nc1cccnc1
2. C=CCSCC1Nc2cc(Cl)c(S(N)(=O)=O)cc2S(=O)(=O)N1 (stereo not drawn)
3. CC1=CCC2C(C1)C2(C)C (stereo not drawn)
4. CC(C)CCCC(C)CCCC(C)CCCCC(C)CCCC(C)CCCC(C)C (stereo not drawn)

Result:
["-15.1% [at 19 µM] (inactive)", "inactive", "inactive", "inactive"]

###

Protocol text: qHTS RealTime-Glo MT Cell Viability Assay in HEK293 cells - 40 hour (AID 1224874); further: on the % scale 0 is the no-effect control and ±100 the full control effect; nearly all actives have a fitted effect of over 50% in size
Assay setup: RealTime-Glo luminescence; active compounds read low
Inconclusive results are not listed.
Measured parameter: max response (%)
One number for each entry, in %.

CC(C)c1cccc(O)c1    1.56

Please supply max response for each of the following items, keeping them in order.
1. O=c1[nH]c2ccccc2c(=O)n1CCCl
2. N#CC1(O)CCCCC1
3. CC(C)(C)N(CCO)CCO
4. CC1(C)OC(=O)Nc2ccc(Br)cc21
5. CNc1ncnc2nc[nH]c12

Result:
3.48
-16.1
0.933
0.0036
3.96

###

Protocol text: qHTS assay to identify small molecule antagonists of the vitamin D receptor (VDR) signaling pathway - cell viability counter screen (AID 743225); further: on the % scale 0 is the no-effect control and ±100 the full control effect; nearly all actives have a fitted effect of over 50% in size
Assay setup: VDR-bla HEK293T viability, CellTiter-Glo luminescence, 16 h; series mostly up to 61 µM
Inconclusive results are not listed. Calls of active or inactive are those of the source. Calls come from the whole dose curve; as a rule, active = well fitted cell-killing curve with a large enough effect in the repeat runs; inconclusive = weak or mixed curves, or effect the other way; inactive = no such curve, though single readings can be large or run the other way.
Measured parameter: viability change, negative = cytotoxic

OCC(CO)(CO)COCC(CO)(CO)CO    inactive
CC/C=C\CCCCO    inactive
NC(=O)Nc1nc2ccccc2[nH]1    inactive

###

Study target: Estrogen receptor beta (Homo sapiens)
Protocol text: qHTS assay to identify small molecule agonists of the estrogen receptor beta (ER-beta) signaling pathway (AID 1259377); further: on the % scale 0 is the no-effect control and ±100 the full control effect
Assay setup: ER-beta-UAS-bla HEK293T, beta-lactamase FRET ratio, 16 h; series mostly up to 92.4 µM
Results filed as inconclusive are left out. Calls of active or inactive are those of the source. Calls come from the whole dose curve; as a rule, active = well fitted activation curve with a large enough effect in the signal ratio in the repeat runs (not every such curve was filed as active); inconclusive = weak or mixed curves, or effect the other way; inactive = flat fitted curve, though single readings scatter; the % refers to the signal ratio.
Measured parameter: activation

Worked set:
CCOC(=O)Cn1c(=O)sc2cccc(Cl)c21    inactive
C=CCOCC(O)CS(=O)(=O)O (configuration not stated)    inactive
N#CCN(CC#N)CCN(CC#N)CC#N    inactive
Cn1ccc2cc3c(cc21)CCN3C(=O)Nc1cccnc1    -2.3% [at 19 µM] (inactive)
NC(=O)Nc1nc2ccccc2[nH]1    inactive

Please supply activation for each of the following items, keeping them in order.
1. O=C(O)CCNC(=O)c1ccc(N=Nc2ccc(O)c(C(=O)O)c2)cc1
2. O=C1CC2(CCCC2)CC(=O)N1

Result:
1: inactive; 2: inactive

###

Study target: Glucocorticoid receptor (Homo sapiens)
Protocol text: qHTS assay to identify small molecule antagonists of the glucocorticoid receptor (GR) signaling pathway (AID 720692)
Assay setup: GR-bla HeLa, beta-lactamase FRET ratio, dexamethasone-stimulated, 18 h; series mostly up to 58.5 µM
Results filed as inconclusive are left out. The source made the active and inactive calls. The call rests on the fitted dose curve; in most records, active means well fitted inhibition curve with a large enough effect in the signal ratio in the repeat runs (not every such curve was filed as active); inconclusive means weak or mixed curves, or effect the other way; inactive means no such curve, though single readings can be large or run the other way; the % refers to the signal ratio.
Please answer using one outcome listed in true = active, false = inactive

O=C(O)/C=C/c1ccc(/C=C/C(=O)O)cc1    false

Query: Which outcome was assigned to CCCCCCCCCCCCCCC in this test?
Result: false

Query: Which outcome was assigned to O=Cc1ccccc1[N+](=O)[O-] in this test?
Result: false

Query: Which outcome was assigned to [O-][N+](=Nc1ccccc1)c1ccccc1 in this test?
Result: false

Query: Which outcome was assigned to Nc1[nH]c(=O)ncc1F in this test?
Result: false

Query: Which outcome was assigned to O=[N+]([O-])c1ccc(CCO)cc1 in this test?
Result: false

Query: Which outcome was assigned to Nc1nc(F)nc2c1ncn2[C@@H]1O[C@H](CO)[C@@H](O)[C@@H]1O in this test?
Result: false

Query: Which outcome was assigned to CCCc1ccccc1O in this test?
Result: false

Query: Which outcome was assigned to Nc1cc(N)cc(C(=O)O)c1 in this test?
Result: false

Query: Which outcome was assigned to COC(=O)C1=C(C)NC(C)=C(C(=O)OCC(C)=O)C1c1ccccc1[N+](=O)[O-] (stereo not drawn) in this test?
Result: true

Query: Which outcome was assigned to C=C[Si](OC)(OC)OC in this test?
Result: false

Query: Which outcome was assigned to Cc1nccn1CC1CCc2c(c3ccccc3n2C)C1=O (stereo not drawn) in this test?
Result: false

Query: Which outcome was assigned to C=C(C)C(=O)OCCCCCCCCCCCCCCCCCC in this test?
Result: false

Query: Which outcome was assigned to COC[C@H](c1ccc(C(F)(F)F)cc1)N1CCN(C2(C)CCN(C(=O)c3c(C)ncnc3C)CC2)C[C@H]1C in this test?
Result: false

Query: Which outcome was assigned to CC12CCC(CC1=O)C2(C)C (stereo not drawn) in this test?
Result: false

Query: Which outcome was assigned to CC(C=O)Cc1ccc(C(C)C)cc1 (stereo not drawn) in this test?
Result: false

Query: Which outcome was assigned to C#CC(C)(O)CC(C)C (stereo not drawn) in this test?
Result: false

Query: Which outcome was assigned to COC(=O)c1ccc(C(=O)OC)c(C(=O)OC)c1 in this test?
Result: false

Ref: PubChem BioAssay (Tox21)
